Listing of entries alongside the reported polymerase ribozyme fitness (log ratio).
B1: TPR 5TU (parent)
chain: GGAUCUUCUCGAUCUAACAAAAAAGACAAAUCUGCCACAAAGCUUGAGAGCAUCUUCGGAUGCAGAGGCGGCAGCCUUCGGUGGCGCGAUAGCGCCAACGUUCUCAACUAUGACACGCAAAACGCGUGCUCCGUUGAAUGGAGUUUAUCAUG

- Variants of: B1
- assay-summary: polymerase ribozyme fitness, log enrichment relative to wild type (log ratio); higher = more active; in vitro selection for triplet polymerase activity
Variants at the floor of the assay were thinned out.
measured-attribute: polymerase ribozyme fitness (log ratio)

>>> df
                                mutation_key                       measured_attribute  sign  quantitative_result
 0                                 A12G G59C  polymerase ribozyme fitness (log ratio)     =                0.244
 1                            G50U C87U G92A  polymerase ribozyme fitness (log ratio)     =                0.244
 2           C8G G50C U55C G100A A115G U127C  polymerase ribozyme fitness (log ratio)     ≤                 -4.2
 3                A49C G84C U90G C103G A115U  polymerase ribozyme fitness (log ratio)     ≤                 -4.2
 4                     A41G A98U C103G A138C  polymerase ribozyme fitness (log ratio)     ≤                 -4.2
 5                                 A26U G48A  polymerase ribozyme fitness (log ratio)     =                -3.27
 6                                 G50U G92A  polymerase ribozyme fitness (log ratio)     =                -2.93
 7  C5G U13A A29G C51U G94C C114G G140C G141C U144A  polymerase ribozyme fitness (log ratio)     ≤                 -4.2
 8                           C85U C95U G133A  polymerase ribozyme fitness (log ratio)     =                   -4
 9                     A26U A91G G140C C149A  polymerase ribozyme fitness (log ratio)     ≤                 -4.2
10                      C36U C38U G83A A121U  polymerase ribozyme fitness (log ratio)     =                -1.34
11                 A24C G46A G94U C95A A115C  polymerase ribozyme fitness (log ratio)     ≤                 -4.2
12      U31A U45A U55G C85U C95G A120G A142U  polymerase ribozyme fitness (log ratio)     =                -4.06
13                          G83A A115G A150G  polymerase ribozyme fitness (log ratio)     =                -2.88
14                            A52G U78C A89U  polymerase ribozyme fitness (log ratio)     =                -1.24
15                            G84U G94A C96A  polymerase ribozyme fitness (log ratio)     =                -3.87
16                           G81A C85U C132A  polymerase ribozyme fitness (log ratio)     =                -2.23
17                        A3G A19U U55C G84A  polymerase ribozyme fitness (log ratio)     =               -0.956
18  A3C C14A A26G G50C A91G G117A C125U G140A G143C  polymerase ribozyme fitness (log ratio)     ≤                 -4.2
19                             A3U C32G A49U  polymerase ribozyme fitness (log ratio)     ≤                 -4.2
20                U53A C75U C85U C123U C125A  polymerase ribozyme fitness (log ratio)     =                -2.32
21                           A47C U77G U130G  polymerase ribozyme fitness (log ratio)     ≤                 -4.2
